Reference source: the supplement of paper PMC12783771

B1: library; numbered along this chain (parent)
chain: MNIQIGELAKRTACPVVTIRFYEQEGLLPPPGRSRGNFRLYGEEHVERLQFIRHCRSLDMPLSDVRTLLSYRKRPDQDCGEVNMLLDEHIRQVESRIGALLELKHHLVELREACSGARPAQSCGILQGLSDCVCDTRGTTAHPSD

Variants of: B1
protocol details: sfGFP reporter fluorescence (15 h) (µM FITC); higher = stronger transcriptional activation
experimental setup: library round: Round 0; ligand: 30 µM Zn
Recorded measurements of sfGFP reporter fluorescence, one per entry
Could you respond with only the numeric value?

The examples below pair each entry with its known result.
L28T	0.166
K104I	1.22
D64K G128M	4.98
L68G	0.0656
C79A	0.0585
Y22N	0.0614
M60A	0.0713
D64K K104V G128M	4.45
M60L P61N K104V L107C	3.35
P61N K104V L107C G128M	3.41

Report sfGFP reporter fluorescence for `R111M` please.
0.243

Report sfGFP reporter fluorescence for `V82N` please.
0.0564

Report sfGFP reporter fluorescence for `P15H` please.
0.706

Report sfGFP reporter fluorescence for `L28E` please.
0.0656

Report sfGFP reporter fluorescence for `G6K` please.
0.222

Report sfGFP reporter fluorescence for `R33F` please.
0.0665

Report sfGFP reporter fluorescence for `I125K` please.
0.0564

Report sfGFP reporter fluorescence for `P61C` please.
1.78

Report sfGFP reporter fluorescence for `R111C` please.
0.157
